target-system: T1, C-terminal domain of Pseudomonas aeruginosa TolA (TolA^224–347) (Pseudomonas aeruginosa, UniProt P50600 224-347)
T1 chain: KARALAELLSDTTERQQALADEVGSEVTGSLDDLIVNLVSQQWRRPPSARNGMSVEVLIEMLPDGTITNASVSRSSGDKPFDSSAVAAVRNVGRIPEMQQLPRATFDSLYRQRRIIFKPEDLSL
assay-remarks: NMR
pKd: −log10 of the molar value. Ends that are not written are not given here.

- binder: "ADPLVISSGNDRA-NH2 [P. aeruginosa TolB^22–34 peptide (the N-terminus of secreted TolB; the TolA box)]"
  pKd: 3.66
